ASSAY SYSTEM: Recombinant Human NF-kappaB-Inducing Kinase (NIK/MAP3K14) (Homo sapiens, UniProt Q99558)
Sequence (Q99558 whole entry): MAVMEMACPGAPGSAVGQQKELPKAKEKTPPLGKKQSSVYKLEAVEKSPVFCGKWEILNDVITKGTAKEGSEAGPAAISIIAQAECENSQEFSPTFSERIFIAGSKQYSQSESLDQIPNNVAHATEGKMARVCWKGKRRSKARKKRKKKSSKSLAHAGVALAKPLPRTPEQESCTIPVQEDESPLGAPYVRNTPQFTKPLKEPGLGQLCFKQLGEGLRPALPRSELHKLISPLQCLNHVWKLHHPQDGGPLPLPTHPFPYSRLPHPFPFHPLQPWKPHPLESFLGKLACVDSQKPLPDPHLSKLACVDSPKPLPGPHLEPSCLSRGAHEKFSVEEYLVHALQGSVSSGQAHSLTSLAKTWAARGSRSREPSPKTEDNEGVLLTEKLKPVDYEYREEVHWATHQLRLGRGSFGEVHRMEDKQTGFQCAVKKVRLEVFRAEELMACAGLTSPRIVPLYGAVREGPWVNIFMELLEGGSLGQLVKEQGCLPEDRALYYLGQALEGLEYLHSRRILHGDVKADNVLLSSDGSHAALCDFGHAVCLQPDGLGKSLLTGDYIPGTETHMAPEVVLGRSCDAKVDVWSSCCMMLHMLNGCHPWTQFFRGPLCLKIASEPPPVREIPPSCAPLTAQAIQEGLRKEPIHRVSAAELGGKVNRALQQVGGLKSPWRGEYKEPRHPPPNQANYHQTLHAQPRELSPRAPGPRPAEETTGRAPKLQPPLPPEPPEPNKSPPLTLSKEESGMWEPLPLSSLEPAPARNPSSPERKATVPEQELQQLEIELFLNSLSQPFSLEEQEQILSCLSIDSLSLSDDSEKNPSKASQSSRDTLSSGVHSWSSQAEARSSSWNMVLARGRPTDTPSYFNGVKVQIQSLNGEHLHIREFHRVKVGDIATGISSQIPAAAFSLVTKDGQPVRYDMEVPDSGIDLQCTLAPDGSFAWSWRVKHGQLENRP
EXPERIMENTAL PROTOCOL: Biological Assay A2: inhibition of auto-phosphorylation of recombinant human NIK/MAP3K14 (AlphaScreen)
Format: biochemical
TEST CONDITIONS: 0.2 nM GST-tagged NIK, 25 microM ATP, 1 h at 25° C., averaged values

- COMPOUND: "CC(C)(O)C#Cc1cc2c(-c3c[nH]nc3Cl)cn(CCCO)c2cc1F"
  IC50, nM: 11
- COMPOUND: "[2H]C([2H])([2H])C(O)(C#Cc1cc2c(-c3c[nH]nc3Cl)cn(C3CCN(C4CC4)CC3)c2cc1F)C([2H])([2H])[2H]"
  IC50, nM: 71
- COMPOUND: "COCCCn1cc(-c2c[nH]nc2Cl)c2cc(C#CC(C)(C)O)c(F)cc21"
  IC50, nM: 33
- COMPOUND: "CC(O)(C#Cc1cc2c(-c3c[nH]nc3Cl)cn(CCCO)c2cc1F)C1CC1 (stereo not shown)"
  IC50, nM: 67
- COMPOUND: "Cn1cc(-c2cn[nH]c2)c2cc(C#CC(C)(C)O)ccc21"
  IC50, nM: 65
- COMPOUND: "COCCCn1cc(-c2c[nH]nc2Cl)c2cc(C#CC(C)(O)C3CC3)c(F)cc21 (stereo not shown)"
  IC50, nM: 183
- COMPOUND: "[2H]C([2H])([2H])C(O)(C#Cc1cc2c(-c3c[nH]nc3Cl)cn(C3CCCN(CC)C3)c2cc1F)C([2H])([2H])[2H] (single isomer, unassigned) [Compound 31]"
  IC50, nM: 146

---

ASSAY SYSTEM: Recombinant Human NF-kappaB-Inducing Kinase (NIK/MAP3K14) (Homo sapiens, UniProt Q99558)
EXPERIMENTAL PROTOCOL: Biological Assay A: inhibition of recombinant human NIK/MAP3K14 activity (MSD, MBP substrate)
TEST CONDITIONS: 10 nM NIK, 25 μM ATP, 1 h at 25° C.; averaged over all measurements on all batches; read-out: Biochemical (MSD IC50)
pIC50: −log10 of the molar value.
ENDPOINT LABEL: pIC50

- COMPOUND: "CCn1cc(-c2c[nH]nc2N)c2cc(C#CC(C)(C)O)ccc21"
  ASSAY SYSTEM: "Recombinant Human NF-kappaB-Inducing Kinase (NIK/MAP3K14) (Homo sapiens, UniProt Q99558)"
  MEASURED VALUE: 7.36
- COMPOUND: "CC(C)(O)C#Cc1ccc2c(c1)c(-c1cn[nH]c1)cn2CC(C)(C)O"
  ASSAY SYSTEM: "Recombinant Human NF-kappaB-Inducing Kinase (NIK/MAP3K14) (Homo sapiens, UniProt Q99558)"
  MEASURED VALUE: 7.42
- COMPOUND: "CC(C)(O)C#Cc1ccc2[nH]cc(-c3cn[nH]c3)c2c1"
  ASSAY SYSTEM: "Recombinant Human NF-kappaB-Inducing Kinase (NIK/MAP3K14) (Homo sapiens, UniProt Q99558)"
  MEASURED VALUE: 7.55
- COMPOUND: "OC1(C#Cc2ccc3[nH]cc(-c4cn[nH]c4)c3c2)CCCC1"
  ASSAY SYSTEM: "Recombinant Human NF-kappaB-Inducing Kinase (NIK/MAP3K14) (Homo sapiens, UniProt Q99558)"
  MEASURED VALUE: 7.52
- COMPOUND: "CC(O)(C#Cc1ccc2[nH]cc(-c3cn[nH]c3)c2c1)c1nccs1 (centres unmarked)"
  ASSAY SYSTEM: "Recombinant Human NF-kappaB-Inducing Kinase (NIK/MAP3K14) (Homo sapiens, UniProt Q99558)"
  MEASURED VALUE: 8.05
